Origin of measurements: patent US9321781B2

Test system: MDR1
Experiment: MTT cytotoxicity assay, KBV-1 efflux transporter cell line
Assay type: cell-based
Conditions: human, KBV-1 cells (KB3-1 variant that overexpresses MDR1), KBV-1 cells (MDR1 overexpressing), continuous exposure four days
PROPERTY NAME: log10 of IC50 at 4 days (log10 of the value in µM)
Reminder: these figures are log10 of reported IC50 at 4 days, in µM before transformation.

The following molecules have reported results that may help.
smiles_string=COc1cc2c(cc1OC(=O)N1CCC(N3CCCCC3)CC1)c(=O)n(CCN(C)C)c1c3cc4c(cc3ncc21)OCO4 property_name="log10 of IC50 at 4 days" assay_result=0.20
smiles_string=COc1cc2c(cc1OC(=O)C(C)(C)C)c(=O)n(CCN(C)C)c1c3cc4c(cc3ncc21)OCO4 property_name="log10 of IC50 at 4 days" assay_result=-1.62

// fetch log10 of IC50 at 4 days given entry `CCNC(=O)Oc1cc2c(=O)n(CCN(C)C)c3c4cc5c(cc4ncc3c2cc1OC)OCO5`
-1.40

Tell me its log10 of IC50 at 4 days given `COc1cc2c(cc1OC(=O)c1ccccc1)c(=O)n(CCN(C)C)c1c3cc4c(cc3ncc21)OCO4` as the entry.
-1.22

Answer with reported log10 of IC50 at 4 days of `COc1cc2c(cc1OC(=O)OC(C)(C)C)c(=O)n(CCN(C)C)c1c3cc4c(cc3ncc21)OCO4`
-2.40

Answer with the recorded log10 of IC50 at 4 days of `COc1cc2c(cc1OC(=O)c1ccccc1C)c(=O)n(CCN(C)C)c1c3cc4c(cc3ncc21)OCO4` only.
-0.70

Please indicate log10 of IC50 at 4 days recorded for `COc1cc2c(cc1OC(=O)N(C)C)c(=O)n(CCN(C)C)c1c3cc4c(cc3ncc21)OCO4`
0.48

Given `CCOC(=O)Oc1cc2c(=O)n(CCN(C)C)c3c4cc5c(cc4ncc3c2cc1OC)OCO5` , respond with its log10 of IC50 at 4 days.
-2.52

Identify log10 of IC50 at 4 days associated with the molecule `COc1cc2c(cc1OC(C)=O)c(=O)n(CCN(C)C)c1c3cc4c(cc3ncc21)OCO4`
-1.22

Read the entry `COc1cc2c(cc1OC(=O)CCC1CCCC1)c(=O)n(CCN(C)C)c1c3cc4c(cc3ncc21)OCO4` and write its reported log10 of IC50 at 4 days.
-1.24
